Target: D2 DAR (Homo sapiens (Human), UniProt P14416)
Sequence (P14416 whole entry): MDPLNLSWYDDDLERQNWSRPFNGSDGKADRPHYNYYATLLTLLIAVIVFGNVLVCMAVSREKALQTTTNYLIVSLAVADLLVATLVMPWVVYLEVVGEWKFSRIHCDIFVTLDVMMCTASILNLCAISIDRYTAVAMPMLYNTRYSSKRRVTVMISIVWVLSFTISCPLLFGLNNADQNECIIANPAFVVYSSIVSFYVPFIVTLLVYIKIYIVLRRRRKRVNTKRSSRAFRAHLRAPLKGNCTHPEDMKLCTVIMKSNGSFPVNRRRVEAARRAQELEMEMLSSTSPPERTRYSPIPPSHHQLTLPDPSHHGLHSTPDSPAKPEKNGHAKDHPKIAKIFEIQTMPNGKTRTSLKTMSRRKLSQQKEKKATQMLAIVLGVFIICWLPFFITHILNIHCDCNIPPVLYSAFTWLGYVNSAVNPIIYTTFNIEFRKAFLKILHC
Conditions: β-arrestin recruitment, antagonist
pIC50: −log10 of the molar value.
Item-by-item account of pIC50

Examples with answers:
- compound: "COc1ccc(C(=O)N2CCN(CCOc3ccc4c(c3)OCO4)CC2)cc1 [Compound 39]"
  target of assay: "D2 DAR (Homo sapiens (Human), UniProt P14416)"
  reported measurement: "< 5.00"
- compound: "O=C(c1ccc[nH]1)N1CCN(CCOc2cccnc2)CC1 [Compound 90]"
  target of assay: "D2 DAR (Homo sapiens (Human), UniProt P14416)"
  reported measurement: "< 4.00"
- compound: "COc1ccc(OCCN2CCN(C(=O)C3Cc4c(cccc4OC)N3)CC2)cc1 (stereo not drawn) [Compound 47]"
  target of assay: "D2 DAR (Homo sapiens (Human), UniProt P14416)"
  reported measurement: "< 4.00"
- compound: "COc1ccc(C(=O)N2CCN(CCOc3ccc(OC)c(OC)c3)CC2)cc1 [Compound 38]"
  target of assay: "D2 DAR (Homo sapiens (Human), UniProt P14416)"
  reported measurement: "< 4.00"
- compound: "O=C(c1cc2ccccc2[nH]1)N1CCN(CCOc2ccc(F)cc2)CC1 [Compound 100]"
  target of assay: "D2 DAR (Homo sapiens (Human), UniProt P14416)"
  reported measurement: 5.01

Input: Please supply the value of reported pIC50 for the item CCOc1ccc(OCCN2CCN(C(=O)c3cc4ccccc4[nH]3)CC2)cc1 [Compound 95]
Output: < 4.00

Input: Please supply the value of reported pIC50 for the item O=C(c1cc2ccccc2[nH]1)N1CCN(CCOc2ccccc2)CC1 [Compound 2]
Output: 6.27

Input: Please supply the value of reported pIC50 for the item O=C(c1cc2ccccc2[nH]1)N1CCN(CCOc2ccc(Cl)cc2)CC1 [Compound 101]
Output: < 4.30

Input: Please supply the value of reported pIC50 for the item COc1ccc(OCCN2CCN(C(=O)c3ccc(OC)cn3)CC2)cc1 [Compound 44]
Output: < 4.00

Input: Please supply the value of reported pIC50 for the item O=C(c1cc2ccccc2[nH]1)N1CCN(CCOc2ccc(OC(F)(F)F)cc2)CC1 [Compound 96]
Output: < 4.00

Input: Please supply the value of reported pIC50 for the item CSc1cccc(OCCN2CCN(C(=O)c3cc4ccccc4[nH]3)CC2)c1 [Compound 93]
Output: < 4.00

Input: Please supply the value of reported pIC50 for the item COc1ccc(OCCN2CCN(C(=O)c3cc4ccccc4o3)CC2)cc1 [Compound 62]
Output: 5.11

Input: Please supply the value of reported pIC50 for the item COc1ccc(OCC(C)N2CCN(C(=O)c3ccc(OC)cc3)CC2)cc1 (stereo not drawn) [Compound 111]
Output: < 4.00
